Values were extracted from patent US11033506B2.

test_description: Octanol/water partition coefficient
Assay type: physicochemical
measurement_context: octanol/aqueous buffer solution (pH 7); Log10 (octanol phase/aqueous phase), aqueous buffer solution of pH 7
measurement_label: logD

stdin: May I ask what logD has been recorded for O=C1CCc2ccc(OCCCCN3CCN(c4cccc(Cl)c4Cl)CC3)cc2N1 [aripiprazole] ?
stdout: 4.5
